condition.set: in chloroform, 288.15 K
assay.endpoint: solubility (mole fraction)

Endpoint output: solubility (mole fraction) of C1CC1N1C2C3N(C4CC4)C1C1N(C4CC4)C(C(N1C1CC1)N3C1CC1)N2C1CC1 . Value?
0.0297

----------
condition.set: in acetonitrile, 288.15 K
assay.endpoint: solubility (mole fraction)
No unit in the answer, please; the number alone is enough.

Endpoint output: solubility (mole fraction) of C1CC1N1C2C3N(C4CC4)C1C1N(C4CC4)C(C(N1C1CC1)N3C1CC1)N2C1CC1 . Value?
7.76e-05

----------
condition.set: in tetrachloromethane, 293.15 K
assay.endpoint: solubility (mole fraction)
No unit in the answer, please; the number alone is enough.

Endpoint output: solubility (mole fraction) of C1CC1N1C2C3N(C4CC4)C1C1N(C4CC4)C(C(N1C1CC1)N3C1CC1)N2C1CC1 . Value?
0.0372

----------
condition.set: in 1,1,2-trichloroethane, 283.15 K
assay.endpoint: solubility (mole fraction)
No unit in the answer, please; the number alone is enough.

Endpoint output: solubility (mole fraction) of C1CC1N1C2C3N(C4CC4)C1C1N(C4CC4)C(C(N1C1CC1)N3C1CC1)N2C1CC1 . Value?
0.00991

----------
condition.set: in ethanol, 313.15 K
assay.endpoint: solubility (mole fraction)
No unit in the answer, please; the number alone is enough.

Endpoint output: solubility (mole fraction) of C1CC1N1C2C3N(C4CC4)C1C1N(C4CC4)C(C(N1C1CC1)N3C1CC1)N2C1CC1 . Value?
0.000951

----------
condition.set: in chloroform, 303.15 K
assay.endpoint: solubility (mole fraction)
No unit in the answer, please; the number alone is enough.

Endpoint output: solubility (mole fraction) of C1CC1N1C2C3N(C4CC4)C1C1N(C4CC4)C(C(N1C1CC1)N3C1CC1)N2C1CC1 . Value?
0.0405

----------
condition.set: in 1,2-dichloroethane, 303.15 K
assay.endpoint: solubility (mole fraction)
No unit in the answer, please; the number alone is enough.

Endpoint output: solubility (mole fraction) of C1CC1N1C2C3N(C4CC4)C1C1N(C4CC4)C(C(N1C1CC1)N3C1CC1)N2C1CC1 . Value?
0.00624

----------
condition.set: in 1,2-dichloroethane, 293.15 K
assay.endpoint: solubility (mole fraction)
No unit in the answer, please; the number alone is enough.

Endpoint output: solubility (mole fraction) of C1CC1N1C2C3N(C4CC4)C1C1N(C4CC4)C(C(N1C1CC1)N3C1CC1)N2C1CC1 . Value?
0.00421

----------
condition.set: in cyclohexane, 318.15 K
assay.endpoint: solubility (mole fraction)
No unit in the answer, please; the number alone is enough.

Endpoint output: solubility (mole fraction) of C1CC1N1C2C3N(C4CC4)C1C1N(C4CC4)C(C(N1C1CC1)N3C1CC1)N2C1CC1 . Value?
0.0297

----------
condition.set: in tetrachloromethane, 318.15 K
assay.endpoint: solubility (mole fraction)
No unit in the answer, please; the number alone is enough.

Endpoint output: solubility (mole fraction) of C1CC1N1C2C3N(C4CC4)C1C1N(C4CC4)C(C(N1C1CC1)N3C1CC1)N2C1CC1 . Value?
0.0632

----------
condition.set: in tetrachloromethane, 278.15 K
assay.endpoint: solubility (mole fraction)

Endpoint output: solubility (mole fraction) of C1CC1N1C2C3N(C4CC4)C1C1N(C4CC4)C(C(N1C1CC1)N3C1CC1)N2C1CC1 . Value?
0.0269

----------
condition.set: in acetone, 303.15 K
assay.endpoint: solubility (mole fraction)
No unit in the answer, please; the number alone is enough.

Endpoint output: solubility (mole fraction) of C1CC1N1C2C3N(C4CC4)C1C1N(C4CC4)C(C(N1C1CC1)N3C1CC1)N2C1CC1 . Value?
0.000736

----------
condition.set: in methanol, 293.15 K
assay.endpoint: solubility (mole fraction)
No unit in the answer, please; the number alone is enough.

Endpoint output: solubility (mole fraction) of C1CC1N1C2C3N(C4CC4)C1C1N(C4CC4)C(C(N1C1CC1)N3C1CC1)N2C1CC1 . Value?
0.000144

----------
condition.set: in ethyl acetate, 308.15 K
assay.endpoint: solubility (mole fraction)

Endpoint output: solubility (mole fraction) of C1CC1N1C2C3N(C4CC4)C1C1N(C4CC4)C(C(N1C1CC1)N3C1CC1)N2C1CC1 . Value?
0.00373

----------
condition.set: in methanol, 288.15 K
assay.endpoint: solubility (mole fraction)
No unit in the answer, please; the number alone is enough.

Endpoint output: solubility (mole fraction) of C1CC1N1C2C3N(C4CC4)C1C1N(C4CC4)C(C(N1C1CC1)N3C1CC1)N2C1CC1 . Value?
0.00011

----------
condition.set: in tetrachloromethane, 303.15 K
assay.endpoint: solubility (mole fraction)
No unit in the answer, please; the number alone is enough.

Endpoint output: solubility (mole fraction) of C1CC1N1C2C3N(C4CC4)C1C1N(C4CC4)C(C(N1C1CC1)N3C1CC1)N2C1CC1 . Value?
0.0461

----------
condition.set: in 1,1,2-trichloroethane, 278.15 K
assay.endpoint: solubility (mole fraction)
No unit in the answer, please; the number alone is enough.

Endpoint output: solubility (mole fraction) of C1CC1N1C2C3N(C4CC4)C1C1N(C4CC4)C(C(N1C1CC1)N3C1CC1)N2C1CC1 . Value?
0.00866

----------
condition.set: in cyclohexane, 283.15 K
assay.endpoint: solubility (mole fraction)
No unit in the answer, please; the number alone is enough.

Endpoint output: solubility (mole fraction) of C1CC1N1C2C3N(C4CC4)C1C1N(C4CC4)C(C(N1C1CC1)N3C1CC1)N2C1CC1 . Value?
0.00931

----------
condition.set: in 1,1,2-trichloroethane, 298.15 K
assay.endpoint: solubility (mole fraction)

Endpoint output: solubility (mole fraction) of C1CC1N1C2C3N(C4CC4)C1C1N(C4CC4)C(C(N1C1CC1)N3C1CC1)N2C1CC1 . Value?
0.0143

----------
condition.set: in acetonitrile, 283.15 K
assay.endpoint: solubility (mole fraction)
No unit in the answer, please; the number alone is enough.

Endpoint output: solubility (mole fraction) of C1CC1N1C2C3N(C4CC4)C1C1N(C4CC4)C(C(N1C1CC1)N3C1CC1)N2C1CC1 . Value?
6.68e-05

----------
condition.set: in ethanol, 293.15 K
assay.endpoint: solubility (mole fraction)

Endpoint output: solubility (mole fraction) of C1CC1N1C2C3N(C4CC4)C1C1N(C4CC4)C(C(N1C1CC1)N3C1CC1)N2C1CC1 . Value?
0.000452

----------
condition.set: in 1,1,2-trichloroethane, 308.15 K
assay.endpoint: solubility (mole fraction)

Endpoint output: solubility (mole fraction) of C1CC1N1C2C3N(C4CC4)C1C1N(C4CC4)C(C(N1C1CC1)N3C1CC1)N2C1CC1 . Value?
0.0182

----------
condition.set: in dichloromethane, 308.15 K
assay.endpoint: solubility (mole fraction)
No unit in the answer, please; the number alone is enough.

Endpoint output: solubility (mole fraction) of C1CC1N1C2C3N(C4CC4)C1C1N(C4CC4)C(C(N1C1CC1)N3C1CC1)N2C1CC1 . Value?
0.0291

----------
condition.set: in ethanol, 283.15 K
assay.endpoint: solubility (mole fraction)
No unit in the answer, please; the number alone is enough.

Endpoint output: solubility (mole fraction) of C1CC1N1C2C3N(C4CC4)C1C1N(C4CC4)C(C(N1C1CC1)N3C1CC1)N2C1CC1 . Value?
0.000283

----------
condition.set: in acetone, 278.15 K
assay.endpoint: solubility (mole fraction)
No unit in the answer, please; the number alone is enough.

Endpoint output: solubility (mole fraction) of C1CC1N1C2C3N(C4CC4)C1C1N(C4CC4)C(C(N1C1CC1)N3C1CC1)N2C1CC1 . Value?
0.000269

----------
condition.set: in ethanol, 308.15 K
assay.endpoint: solubility (mole fraction)
No unit in the answer, please; the number alone is enough.

Endpoint output: solubility (mole fraction) of C1CC1N1C2C3N(C4CC4)C1C1N(C4CC4)C(C(N1C1CC1)N3C1CC1)N2C1CC1 . Value?
0.000805

----------
condition.set: in methanol, 278.15 K
assay.endpoint: solubility (mole fraction)
No unit in the answer, please; the number alone is enough.

Endpoint output: solubility (mole fraction) of C1CC1N1C2C3N(C4CC4)C1C1N(C4CC4)C(C(N1C1CC1)N3C1CC1)N2C1CC1 . Value?
4.66e-05

----------
condition.set: in 1,1,2-trichloroethane, 288.15 K
assay.endpoint: solubility (mole fraction)
No unit in the answer, please; the number alone is enough.

Endpoint output: solubility (mole fraction) of C1CC1N1C2C3N(C4CC4)C1C1N(C4CC4)C(C(N1C1CC1)N3C1CC1)N2C1CC1 . Value?
0.0113

----------
condition.set: in dichloromethane, 278.15 K
assay.endpoint: solubility (mole fraction)
No unit in the answer, please; the number alone is enough.

Endpoint output: solubility (mole fraction) of C1CC1N1C2C3N(C4CC4)C1C1N(C4CC4)C(C(N1C1CC1)N3C1CC1)N2C1CC1 . Value?
0.0129

Data origin: BigSolDB 2.1
